tested on: MOLT-4 leukemia; assay: NCI-60 one-dose screen, 48 h; conditions: 10 µM unless noted
The panel holds about 83,000 compounds, 20% with a hit somewhere; the sample as a whole holds those more often. Active and inactive are the calls of the source. The calls were made as follows: active = growth percent below 10; inactive = the rest.
Write down one outcome, taken from active, inactive

Any idea what this test logged for COC(=O)[C@H](Cc1cnc[nH]1)NC(=O)[C@@H](NC(=O)Nc1cc(C(F)(F)F)cc(C(F)(F)F)c1)C(C)C ?
active

Any idea what this test logged for CNNc1ncnc2c1cnn2-c1ccc(S(N)(=O)=O)cc1 ?
inactive

Any idea what this test logged for O=C1/C(=C/c2ccccc2O)C(=S)SN1Cc1ccco1 ?
inactive

Any idea what this test logged for COc1ccc(-c2cc(-c3nnc(SCC(=O)Nc4ccc(C(C)=O)cc4)n3-c3ccccc3)c3ccccc3n2)cc1OC ?
inactive

Any idea what this test logged for O=C1Nc2ccc(Cl)cc2/C1=C/c1cccs1 ?
inactive

Any idea what this test logged for NS(=O)(=O)c1cc(C2(O)NC(=O)c3ccccc32)ccc1Cl (stereo not given) ?
inactive

Any idea what this test logged for Cc1ccc(C(=O)Cc2ccccc2)c(O)c1 ?
inactive

Any idea what this test logged for O=C(N/N=C/c1ccc(Cl)cc1Cl)c1ccccc1Nc1cccc(C(F)(F)F)c1 ?
inactive

Any idea what this test logged for CC(C)C[C@H](NC(=O)/C=C/Cn1ccc2ccccc2c1=O)B(O)O ?
active

Any idea what this test logged for C[C@]12CCC(=O)C=C1CC[C@H]1[C@@H]3C[C@@H](O)[C@](O)(C(=O)CO)[C@@]3(C)C[C@H](O)[C@@]12F ?
inactive

Any idea what this test logged for O=C(CN1CCN(c2ccc(Cl)cc2)CC1)N1CCN(c2nnc(-c3ccc(Cl)cc3)c(-c3ccc(Cl)cc3)n2)CC1 ?
active

Any idea what this test logged for COc1c(Br)cc(C(c2cc(Br)c(OC)c(Br)c2)c2ccccc2C(=O)O)cc1Br ?
inactive

Any idea what this test logged for O=c1oc2c(cc1-c1ccc([N+](=O)[O-])cc1)C(O)Oc1ccccc1-2 (stereo not given) ?
inactive

Any idea what this test logged for O=C1CNc2cc(Cl)ccc2N1 ?
inactive

Any idea what this test logged for COc1ccc(C2=NN(C(N)=S)C(c3ccc4c(c3)OCO4)C2)cc1 (stereo not given) ?
inactive

Any idea what this test logged for COc1ccc([N+](=O)[O-])c(S(=O)(=O)c2ccc(Cl)cc2)n1 ?
active

Any idea what this test logged for O=C(Nc1nc(-c2ccc(Cl)cc2)cs1)c1cc(-c2ccc(Br)cc2)nc2ccc(Cl)cc12 ?
inactive

Any idea what this test logged for COc1ccc(NC(=O)[C@@H]2C[C@H]2c2ccccc2)c(C(N)=O)c1 ?
inactive

Any idea what this test logged for CC(=O)[C@H]1CC[C@H]2[C@@H]3C[C@H](C)C4=CC(=O)CC[C@]4(C)[C@H]3C(=O)C[C@]12C ?
inactive

Any idea what this test logged for Nc1ccc(Oc2c(F)c(F)c(Oc3ccc(N)cc3)c(F)c2F)cc1 ?
inactive

Any idea what this test logged for NS(=O)(=O)c1ccc(-n2ncc3c(NC4CCCCC4)ncnc32)cc1 ?
inactive

Any idea what this test logged for O=C(O)CNC(=O)C1(N2C(=O)c3ccccc3C2=O)CCCC1 ?
inactive

Any idea what this test logged for COc1cc(/C=C2\SC(N3CCCCC3)=NC2=O)ccc1OCCCCCCOc1ccc(/C=C2\SC(N3CCCCC3)=NC2=O)cc1OC ?
active

Any idea what this test logged for CCCCCc1c(C)[nH]c(/C=C2\N=C(c3ccc[nH]3)C=C2OCc2ccccc2)c1C ?
active

Any idea what this test logged for COc1ccc(C(=O)/C=C/c2ccc(C)cc2)cc1OC ?
inactive

Any idea what this test logged for C(=C1c2ccccc2-c2ccccc21)c1ccccn1 ?
inactive

Any idea what this test logged for Cc1ccc(-c2csc(N)n2)cc1 ?
inactive

Any idea what this test logged for COc1cc(C(=O)c2cc3c(cc2C)OCO3)cc(OC)c1OC ?
inactive

Any idea what this test logged for OC(c1cc(-c2cccc(Cl)c2)nc2ccccc12)C1CCCCN1 (stereo not given) ?
active

Any idea what this test logged for COc1cnc2c(c1)C(=O)c1c-2n(CCCN2CCCC2)c(=O)c2cc(F)ccc12 ?
active

Any idea what this test logged for CN1CCN(CCCCCN=c2cc3c(=O)n(CCCCCN4CCN(C)CC4)c(=O)c4c(NCCCCCN5CCN(C)CC5)cc5c(O)n(CCCCCN6CCN(C)CC6)c(=O)c2c5c4-3)CC1 ?
inactive

Any idea what this test logged for NS(=O)(=O)c1ccc(-n2ncc3c(SCc4ccccc4)ncnc32)cc1 ?
inactive

Any idea what this test logged for N[C@H](CS)C(=O)O ?
inactive

Any idea what this test logged for COc1cnc2c(c1)C(=O)c1c-2n(CCCN2CCNCC2)c(=O)c2cc(F)ccc12 ?
active

Any idea what this test logged for C[C@]12CCC(=O)C=C1CCC1C2[C@@H](O)C[C@@]2(C)C1CC[C@]2(O)C(=O)COC(=O)CCC(=O)O (stereo not given in full) ?
inactive

Any idea what this test logged for O=c1[nH]c(N2CCC(Cc3ccccc3)CC2)nc2sc3c(c12)CCCC3 ?
inactive

Any idea what this test logged for CCN1CCN(c2nc(NNC(=O)Cc3ccccc3)nc(N3CCN(C(c4ccccc4)c4ccccc4)CC3)n2)CC1 ?
inactive

Any idea what this test logged for Cc1nn(-c2nc3ccccc3s2)c(C)c1Oc1ccccc1O ?
inactive

Any idea what this test logged for FCc1ncc(-c2ccc(C(F)(F)F)cc2)c(NC2CCCCCC2)n1 ?
active

Any idea what this test logged for C/C=C(/C(=C/C)c1ccc(O)cc1)c1ccc(O)cc1 ?
inactive

Data credit: PubChem BioAssay (NCI)
